- PROCEDURE SUMMARY: viability loss with induced miR-34 in A549 – imaging, A549 dox-inducible miR-34, nuclei and caspase counts, primary screen (AID 1347080); further: test concentration not given here
- MEASUREMENT SETUP: A549 miR-34 inducible, Hoechst nuclei count, 48 h; measured here: total cells without miR-34 induction
Threshold-based label: cell count under 8000 gives T, cell count not under 8000 gives F.

1) Clc1ccccc1CNCC1CCC(CNCc2ccccc2Cl)CC1 (stereo not given): T
2) COc1ccc(-c2cc3c(C)nc(N)nc3n(C3CCC(OCCO)CC3)c2=O)cn1 (stereo not given): T
3) CC/C=C\C/C=C\C/C=C\CCCCCCCC(=O)OCC: T
4) O=P(O)(O)O[C@@H]1[C@H](O)[C@H](O)[C@@H](OP(=O)(O)O)[C@H](OP(=O)(O)O)[C@H]1O: T
5) CCCCCCCCCCCCCCCC(=O)OC[C@H](COP(=O)([O-])OCC[N+](C)(C)C)OC(=O)CCCC(=O)/C=C/C(=O)O: T
6) Cc1c(C)c2c(c(C)c1O)CCC(C)(CCCC(C)C(=O)O)O2 (stereo not given): T
7) CC(=O)Nc1cccc(-n2c(=O)n(C3CC3)c(=O)c3c(Nc4ccc(I)cc4F)n(C)c(=O)c(C)c32)c1: T
8) NC(=O)CCCCn1ccc(NC(N)=NCC(F)(F)F)n1: F
9) Cc1ccc(NC(=O)c2cccc(C(C)(C)C#N)c2)cc1Nc1ccc2ncn(C)c(=O)c2c1: T
10) NC(Cn1ccc(=O)n(Cc2ccccc2C(=O)O)c1=O)C(=O)O (stereo not given): F
11) CCCCCCCCCC(=O)N[C@@H](CN1CCOCC1)[C@@H](O)c1ccccc1: T
12) O=C1c2ccccc2CCC1CNCCc1ccc(O)cc1 (stereo not given): F
13) NC(=NC1C2CC3CC(C2)CC1C3)Nc1ccc(I)cc1 (stereo not given): T
14) Cc1ccc(/C=C2\CNC/C(=C\c3ccc(C)cc3)C2=O)cc1: T
15) O=C(CCCCc1ccccc1)C(F)(F)C(F)(F)F: T
16) COc1ccc(-c2ccc(=N)n(CCCC(=O)O)n2)cc1: F
17) CCCc1c(OCC(O)COc2ccc3c(=O)cc(C(=O)O)oc3c2CCC)ccc(C(C)=O)c1O (stereo not given): F
18) C=CCNC(=O)c1cc([N+](=O)[O-])cc2c(=O)[nH]c(Nc3ccc(Cl)c(Cl)c3)nc12: F
19) CC(C)OC(=O)CCC/C=C\C[C@@H]1[C@@H](/C=C/[C@H](O)CCc2ccccc2)[C@H](O)C[C@@H]1O: T
20) CCOC(=O)c1ccc(N=Nc2ccc(O)c(CC(=O)O)c2)cc1: T
21) Cc1cnc(-c2cnc(NCCNc3ccc(C#N)cn3)nc2-c2ccc(Cl)cc2Cl)[nH]1: T
22) CCC(=O)NC1CCc2cccc(OC)c2C1 (stereo not given): F
23) Cc1cc(Nc2cc(N3CCN(C)CC3)nc(Sc3ccc(NC(=O)C4CC4)cc3)n2)n[nH]1: T
24) Cc1cc(C)c(S(=O)(=O)Nc2cccc(C(F)(F)F)c2)c(C)c1: T
25) COc1cc([C@@H]2c3cc4c(cc3[C@@H](OC3OC5COC(C)OC5C(O)C3O)[C@H]3COC(=O)[C@H]23)OCO4)cc(OC)c1O (stereo not given in full): T
